- measurement-description: Hydrolysis rate / drug release rate of the compounds (release of JAK inhibitor, HPLC)
- Assay type: physicochemical
- conditions-used: % release of JAK inhibitor from sample in acetonitrile/water=7/3 (v/v), 37° C. constant temperature shaker, sampled days 1-4, HPLC
observation-type: Release Rate (%/day)
Just the number please, in %/day, no unit attached.

Reference set (3 entries):
| compound | endpoint-value |
| --- | --- |
| CC(C(=O)n1ccc2c(N(C)[C@H]3CN(C(=O)CC#N)CC[C@H]3C)ncnc21)c1cccc(C(=O)c2ccccc2)c1 (stereo partly shown) [Ex. 7] | 15.65 |
| C[C@@H]1CCN(C(=O)CC#N)C[C@@H]1N(C)c1ncnc2c1ccn2COC(=O)[C@@H](NC(=O)OC(C)(C)C)c1ccccc1 [Ex. 64] | 0.88 |
| CC[C@@H]1CN(C(=O)NCC(F)(F)F)C[C@@H]1c1cnc2cnc3c(ccn3C(=O)c3ccccc3Nc3cccc(Cl)c3C)n12 [Ex. 130] | 11.67 |

Exercise: Record request: Release Rate (%/day) value, item CC(C(=O)n1ccc2c(N(C)[C@H]3CN(C(=O)CC#N)CC[C@H]3C)ncnc21)c1ccc(-c2ccccc2)c(F)c1 (stereo partly shown) [Ex. 8]
Key: 14.77
